Test system: SK-OV-3 ovarian
ASSAY: NCI tumour cell line growth inhibition, 48 h
READOUT: TGI

Solved cases (8 shown):
In [3]: df
Out[3]:
                                   compound  readout_value
0  O=[N+]([O-])C(=C(Nc1cccc2cccnc12)Nc1cccc2cccnc12)C(Cl)=C(Cl)Cl       > 100 µM
1  CC1(C)[C@@H]2CC[C@@]1(C)CN(CCC[N+](C)(C)C)C2       > 100 µM
2  CCC[CH2][Sn]([CH2]CCC)([O]C(=O)c1ccc(OC)c(OC)c1OC)[O][Sn]([CH2]CCC)([CH2]CCC)[O]C(=O)c1ccc(OC)c(OC)c1OC        2.59 µM
3  COc1ccc(-c2ccc(=O)oc2C#Cc2cc(OC)c(OC)c(OC)c2)cc1O        5.65 µM
4                      NC1CCN(Cc2ccccc2)CC1       > 100 µM
5              NCCCN1c2ccccc2Sc2ccc(Cl)cc21        > 10 µM
6                     C=C(C(=O)OCC)C(=O)OCC       > 100 µM
7  CC(C)(C)[Si](C)(C)OCC1OC(n2ccc(=O)[nH]c2=O)C(O[Si](C)(C)C(C)(C)C)/C1=C/C#N (centres undefined)       > 100 µM

Here's the next entry for you.
# get_value(readout='TGI', item= CC1(C)OC2C(CO[Si](C)(C)C(C)(C)C)OC(n3c(I)c(C#C[Si](C)(C)C)c(=O)[nH]c3=O)C2O1 (centres undefined) )
> 100 µM

----------
Tested on: SF-295 CNS
ASSAY: NCI tumour cell line growth inhibition, 48 h
# maps each entry to its TGI

In [3]: df
Out[3]:
                             molecule  readout_value
0  COc1ccc(C(=O)Nc2ccc(O)c(=O)cc2)cc1       > 100 µM

# get_value(readout='TGI', item= CCOC(=O)c1c(-c2ccc(O)c(OC)c2)c(C#N)c(=S)n(C2OC(CO)C(O)C(O)C2O)c1-c1ccccc1 (stereo not drawn) )
> 100 µM

# iterate: `O=C(/C=C/c1ccccc1)Oc1ccc(C(=O)/C=C/c2ccccc2)cc1`
24.4 µM

----------
# maps each entry to its GI50
System: HCT-15 colon
ASSAY: NCI tumour cell line growth inhibition, 48 h

# get_value(readout='GI50', item= CC(=O)ON1CCCC(P(=O)(OCCSC(=O)C(C)(C)C)OCCSC(=O)C(C)(C)C)C1=O (centres undefined) )
973 nM

# iterate: `CN(C)C1CCN(C(=O)c2ccc(NC(=O)Nc3ccc(-c4nc(N5CCOCC5)c5cccn5n4)cc3)cc2)CC1`
2770 nM

# iterate: `COc1ccc(-c2nnc3n(C)c(=O)c4ccccc4n23)cc1N`
49.8 nM

# iterate: `COc1cc(C(=O)N2CCN(C(=O)c3cc(OC)c(OC)c(OC)c3)C2=S)cc(OC)c1OC`
20200 nM

----------
Test system: SK-MEL-2 melanoma
ASSAY: NCI tumour cell line growth inhibition, 48 h
# maps each entry to its TGI
Note: unit µM is implicit; provide only the numeric part.

Solved cases (3 shown):
In [3]: df
Out[3]:
                                   compound  readout  readout_value
0  CC(=O)ON1CCCC(P(=O)(OCCSC(=O)C(C)(C)C)OCCSC(=O)C(C)(C)C)C1=O (stereo not given)      TGI             40
1  O=C(/C(=C/c1ccc(Cl)cc1)c1ccccc1)c1ccccc1      TGI           36.6
2  CCN1CN(c2ccccc2)C2(CCN(CC3COc4ccccc4O3)CC2)C1=O (stereo not given)      TGI           30.7

# get_value(readout='TGI', item= `O=[N+]([O-])C(=C(Nc1ccccc1)Nc1ccccc1)C(Cl)=C(Cl)Cl` )
28.3

----------
Test system: HL-60(TB) leukemia
ASSAY: NCI tumour cell line growth inhibition, 48 h; in the data active = GI50 below about 0.43 µM; inactive = the rest
Just give me one of these, please: active, inactive

>>> print(df.to_string())
                                smiles_code     group
0  Cc1nnc(Nc2ccc(NC(=O)Nc3ccc(Cl)cc3)cc2)c2ccccc12  inactive
1  O=C(NC[C@H](O)CN1CCc2ccccc2C1)c1cc(NC2COC2)ncn1  inactive

What did this assay record as the result for `Clc1cc2c(c(CSc3nc4ccccc4n4cccc34)c1)OCOC2` ?
inactive

# iterate: `COc1ccc(-c2ccc(=O)oc2C#Cc2cc(OC)c(OC)c(OC)c2)cc1O`
active

# iterate: `CCN1CCN(c2cc(C)c3cc(NC(=O)c4ccc(OC)c(OC)c4)ccc3n2)CC1`
inactive

----------
System: HCT-15 colon
ASSAY: NCI tumour cell line growth inhibition, 48 h
READOUT: TGI

In [3]: df
Out[3]:
                                   molecule  readout_value
0  O=C(O)c1ccccc1CC(Cc1ccc2c(c1)CCC2)C(=O)O (stereo unspecified)       > 100 µM

Query TGI on HCT-15 colon for COc1ccc(N2C(=O)CC(=O)N(NC(=O)C(C)Oc3ccccc3C)C2=S)cc1 (stereo unspecified)
> 100 µM

# iterate: `CCOc1cc(/C=C2/C(C)=NN(c3cccc(Cl)c3)/C2=N/c2nc3ccccc3s2)ccc1O`
69.8 µM

# iterate: `O=C(O)CN1CCN2CCCCCN(CC1)CCN(CC(=O)O)CC2`
> 100 µM

# iterate: `C=CCc1cc(-c2nc(=S)[nH][nH]2)ccc1N=NNc1ccc(C(=O)O)cc1`
> 100 µM

# iterate: `C=CCn1c(=O)c(C(=O)Nc2nc(C34CC5CC(CC(C5)C3)C4)cs2)c(O)c2ccccc21`
> 100 µM

# iterate: `O=C1C=C/C(=N\N=C(c2ccccc2)c2ccccc2)O1`
> 10 µM

# iterate: `CC(=O)Nc1ccc(-c2csc(Nc3cccc(-c4csc(C)n4)c3)n2)cc1`
> 27.4 µM

# iterate: `CSC1=N/C(=C\c2ccc(C)cc2)C(=O)N1CN1CCCCC1`
> 100 µM

# iterate: C=C1C(=O)CC2C1CC(=O)/C(C)=C/CCC(C)(O)C2O (stereo unspecified)
11.5 µM

# iterate: `Cc1ccc(C)c(NC(=O)c2cccc([N+](=O)[O-])c2O)c1`
> 100 µM

----------
Tested on: SR leukemia
ASSAY: NCI tumour cell line growth inhibition, 48 h
READOUT: TGI

Solved cases (3 shown):
In [3]: df
Out[3]:
                                   compound  readout_value
0               CN1CCC(=O)/C(=C/c2ccccc2)C1        61.3 µM
1  O=c1[nH][nH]c(=O)n1CCCCCCn1c(=O)[nH][nH]c1=O       > 100 µM
2  CCOc1cc(/C=C2/C(C)=NN(c3cccc(Cl)c3)/C2=N/c2nc3ccccc3s2)ccc1O        81.1 µM

# get_value(readout='TGI', item= `COc1cc(N(CCC#N)CCC#N)ccc1/C(N=Nc1ccc(Cl)cc1)=N/NC(=O)c1cc(Br)ccc1O` )
> 150 µg/mL

# iterate: `CCOC(=O)Nc1cc2c(c(N)n1)N=C(c1ccccc1)CO2`
10.1 µM

# iterate: COC(=O)C(=Cc1cc(OC)c(OC)c(OC)c1-c1cc2c(cc1C1(C)OCCS1)OCO2)C(=O)OC (stereo not drawn)
> 100 µM

# iterate: `On1c(-c2ccccc2)c(-c2ccccc2N2CCCC2)c2ccccc21`
> 100 µM

# iterate: `COc1ccc2/c(=C/c3ccc(N(C)C)cc3)c3cc(-c4ccccc4)[n+](C)n3c2c1`
0.962 µM

----------
# maps each entry to its TGI
System: M19-MEL melanoma
ASSAY: NCI tumour cell line growth inhibition, 48 h
Note: unit µM is implicit; provide only the numeric part.

Solved cases (6 shown):
>>> df
                                   compound  readout_value
0  O=C1CCC2(c3ccc(Cl)cc3)Nc3cc(Cl)ccc3N12 (configuration not stated)           25.5
1    CC(C)C1=Cc2ccc3c(c2C(=O)C1=O)CCCC3(C)C           6.99
2               CN1CCC(=O)/C(=C/c2ccccc2)C1           18.4
3  Cc1ccc2nc(/C(=C/c3ccc(/C=C(\NC(=O)c4ccccc4)c4nc5ccc(C)cc5[nH]4)c(C)c3)NC(=O)c3ccccc3)[nH]c2c1           44.8
4                 CC1=Cc2cccc(C)c2C(=O)C1=O           23.6
5  C[N+](C)([O-])CCOc1cc2c(c3ccccc13)-c1ccccc1C2=O           36.2

Here's the next entry for you.
# get_value(readout='TGI', item= COc1c(O)c2c(=O)cc3c4c5c(cc(=O)c6c(O)c(OC)c(CC(C)O)c(c(c1CC(C)O)c24)c65)OCO3 (configuration not stated) )
2.08

# credit: PubChem BioAssay (NCI)
